# Assay protocol: Example 5: plasma pharmacokinetics of EN3202 20 mg in hepatic impairment vs healthy controls
# Condition context: human, plasma, oral, 20 mg, Tmax, Mild Impairment; median (range)
Assay endpoint: Tmax (h)
The answer is to be given in h; state only the numeric part.

Value of measured Tmax for the entry CN1CC[C@]23c4c5ccc(O)c4O[C@H]2C(=O)CC[C@@]3(O)[C@H]1C5.Cl [Oxymorphone] : 1.75

====

# Assay protocol: Example 5: plasma pharmacokinetics of EN3202 20 mg in hepatic impairment vs healthy controls
# Condition context: human, plasma, oral, 20 mg, median AUC, mildly-impaired group
Assay endpoint: AUC (ng·h/mL)
Numeric answer only, unit ng·h/mL assumed.

So for CN1CC[C@]23c4c5ccc(O)c4O[C@H]2C(=O)CC[C@@]3(O)[C@H]1C5.Cl [Oxymorphone] , the logged AUC turned out to be 24.7
